System: metabotropic glutamate receptor(s) (mGluR) expressed by HNMMCV14.1A cells
TEST_DETAILS: Phosphoinositide hydrolysis: accumulation of 3H-inositol phosphates
Assay type: cell-based, murine
EXPERIMENTAL_SETUP: HNMMCV14.1A cells; agonist 1 h, LiCl 10 mM; read-out: EC50 inositolphosphate accumulation
READOUT_TYPE: EC50 (µM)
One number for each entry, in µM.

- COMPOUND: "N[C@@H](Cn1oc(=O)[nH]c1=O)C(=O)O [Quisqualate, quisqualate]"
  TARGET_OR_SYSTEM: "metabotropic glutamate receptor(s) (mGluR) expressed by HNMMCV14.1A cells"
  EC50, µM: 0.02
- COMPOUND: "N[C@@]1(C(=O)O)CC[C@@H](C(=O)O)C1 [t-ACPD, 1S3R-aminocyclopentane-1,3-dicarboxylate]"
  TARGET_OR_SYSTEM: "metabotropic glutamate receptor(s) (mGluR) expressed by HNMMCV14.1A cells"
  EC50, µM: 20

Then there is this compound:
# query: EC50 | item N[C@@H](CCC(=O)O)C(=O)O [Glutamate, L-glutamate] | system: metabotropic glutamate receptor(s) (mGluR) expressed by HNMMCV14.1A cells 50
